Target: Recombinant human factor D (Homo sapiens (Human))
Sequence (P00746 26-253): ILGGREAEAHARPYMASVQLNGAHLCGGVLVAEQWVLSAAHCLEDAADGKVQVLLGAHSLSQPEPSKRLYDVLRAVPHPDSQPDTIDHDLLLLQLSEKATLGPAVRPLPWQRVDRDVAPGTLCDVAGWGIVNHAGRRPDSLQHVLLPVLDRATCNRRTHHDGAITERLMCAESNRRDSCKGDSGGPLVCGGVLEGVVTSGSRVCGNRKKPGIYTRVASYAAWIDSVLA
Assay: Human Complement Factor D Assay: Method 1
Format: biochemical
Details: Factor D inhibition, Method 1: 10 nM factor D, 1 hour incubation with compound at room temperature, substrate Z-Lys-thiobenzyl, fluorescence readout; read-out: IC50
Outcome measure: pIC50
For clarity, pIC50 is expressed as the negative log10 of concentration in mol/L.

>  <Compound>
CC(=O)c1nn(CC(=O)N2[C@@H]3C[C@@H]3C[C@H]2C(=O)N[C@@H]2C[C@H]2c2ccccc2Cl)c2ncccc12 [Example 66]

>  <Reading>
7.36

$$$$
>  <Compound>
NC(=O)c1nn(CC(=O)N2[C@@H]3C[C@@H]3C[C@H]2C(=O)NC2CC2(F)c2ccccc2F)c2ccccc12 (single isomer, unassigned) [Example 53]

>  <Reading>
7.44

$$$$

Then there is this compound:
Task: Item under review: CC(=O)c1nn(CC(=O)N2[C@@H]3C[C@@H]3C[C@H]2C(=O)N[C@@H]2C[C@H]2c2ccccc2F)c2ncccc12 [Example 63] . Reported pIC50?
Output: 7.19

----------
Molecular target: Recombinant human factor D (Homo sapiens (Human))
Experiment: Human Complement Factor D Assay: Method 1
Assay type: biochemical
Conditions: IC50 (μM), Factor D inhibition, Method 1: 10 nM factor D, 1 hour incubation with compound at room temperature, substrate Z-Lys-thiobenzyl, fluorescence readout
Catalogue of IC50 values
Answer format: numeric, µM implied, no suffix.

Some molecules with known IC50 results, for comparison:
>  <Molecule>
NC(=O)c1nn(CC(=O)N2[C@@H]3C[C@@H]3C[C@H]2C(=O)NC2CCCC(c3ccccc3)C2)c2ccccc12 (single isomer, unassigned) [Example 79]

>  <Reading>
0.114

$$$$
>  <Molecule>
NC(=O)c1nn(CC(=O)N2[C@@H]3C[C@@H]3C[C@H]2C(=O)NC2CCCC(c3ccccc3)C2)c2ccccc12 (single isomer, unassigned) [Example 81]

>  <Reading>
5.65

$$$$
>  <Molecule>
NC(=O)c1nn(CC(=O)N2[C@@H]3C[C@@H]3C[C@H]2C(=O)NC2CCCC(c3ccccc3)C2)c2ccccc12 (single isomer, unassigned) [Example 80]

>  <Reading>
0.475

$$$$

Then there is this molecule:
Task: Item under review: NC(=O)c1nn(CC(=O)N2[C@@H]3C[C@@H]3C[C@H]2C(=O)NC2CCCC(c3ccccc3)C2)c2ccccc12 (single isomer, unassigned) [Example 78] . Reported IC50?
Output: 2

----------
Biological target: Recombinant human factor D (Homo sapiens (Human))
Experiment: Human Complement Factor D Assay: Method 1
Format: biochemical
Settings: Factor D inhibition, Method 1: 10 nM factor D, 1 hour incubation with compound at room temperature, substrate Z-Lys-thiobenzyl, fluorescence readout; read-out: IC50
Outcome measure: IC50 (nM)
Answer format: numeric, nM implied, no suffix.

Some compounds with known IC50 results, for comparison:
>  <Compound>
CC(=O)c1nn(CC(=O)N2[C@H](C(=O)N[C@@H]3C[C@H]3c3ccccc3Cl)C[C@@]3(CO)C[C@@H]23)c2cnccc12

>  <IC50 / nM>
37

$$$$
>  <Compound>
NC(=O)c1nn(CC(=O)N2[C@@H]3C[C@@H]3C[C@H]2C(=O)N[C@@H]2C[C@H]2c2ccccc2)c2ccncc12

>  <IC50 / nM>
118

$$$$
>  <Compound>
NC(=O)c1nn(CC(=O)N2[C@@H]3C[C@@H]3C[C@H]2C(=O)NC2CC2c2ccc(F)cc2F)c2ccccc12 (single isomer, unassigned) [Example 77]

>  <IC50 / nM>
640

$$$$
>  <Compound>
Cc1cc2c(C(N)=O)nn(CC(=O)N3[C@@H]4C[C@@H]4C[C@H]3C(=O)N[C@@H]3C[C@H]3c3ccccc3Cl)c2cn1

>  <IC50 / nM>
45

$$$$
>  <Compound>
CCc1cc2c(C(N)=O)nn(CC(=O)N3[C@@H]4C[C@@H]4C[C@H]3C(=O)N[C@@H]3C[C@H]3c3ccccc3Cl)c2cn1

>  <IC50 / nM>
37

$$$$

Then there is this compound:
Task: Give recorded IC50 with Recombinant human factor D (Homo sapiens (Human)) for the following compound: NC(=O)c1nn(CC(=O)N2[C@@H]3C[C@@H]3C[C@H]2C(=O)NC2CC2(F)c2ccccc2F)c2ccccc12 (single isomer, unassigned) [Example 50]
Output: 3880
